- assayed_target: E3 ubiquitin-protein ligase XIAP (Homo sapiens)
- assay_overview: XIAP binders, primary screen, biophysical, small-molecule microarray, fluorescence 635 nm (AID 1181);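 further: score merges 667 nm emission and signal to noise over triplicate slides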
- stated_conditions: small-molecule microarray binding, higher = more signal
Binary classification by composite z-score, with 0.06 as an inclusive lower bound for met; all other cases are not met.

compound	assayed_target	class_assignment
CCCNC(=O)[C@@]1(Sc2ccc(C)cc2)CC(=O)N(Cc2cc(C(F)(F)F)cc(C(F)(F)F)c2)[C@@H]1c1ccc(CO)cc1I	E3 ubiquitin-protein ligase XIAP (Homo sapiens)	not met
COC(=O)C(CC#Cc1ccc2c(c1)[C@]1(C(=O)N2)[C@H](C(=O)O)[C@H]2C(=O)O[C@H](c3ccccc3)[C@H](c3ccccc3)N2[C@@H]1c1ccc(OCCO)cc1)C(=O)OC	E3 ubiquitin-protein ligase XIAP (Homo sapiens)	not met
CC(C)(C)OC(=O)CC[C@]1(C(=O)NCc2ccccc2)N=C(c2ccc(OCCCO)cc2)O[C@H]1c1ccccc1N=[N+]=[N-]	E3 ubiquitin-protein ligase XIAP (Homo sapiens)	not met
CC(C)CCC[C@@H](C)[C@H]1CC[C@@]2(C)C3=C(CC[C@]12C)[C@@]1(C)CC[C@H](OC(=O)CCl)C(C)(C)C1CC3 (stereo partly specified)	E3 ubiquitin-protein ligase XIAP (Homo sapiens)	met
COc1ccc([Si](C)(C)[C@H]2[C@H](CCO)O[C@@]3(C(=O)N(Cc4ccc(N5C(=O)c6cccc7cccc5c67)cc4)c4ccccc43)[C@@H]2C)cc1	E3 ubiquitin-protein ligase XIAP (Homo sapiens)	not met
COc1ccc(C#Cc2ccc3c(c2)[C@]2(C(=O)N3)[C@H](c3ccc(O)cc3)N3[C@H](c4ccccc4)[C@H](c4ccccc4)OC(=O)[C@H]3[C@@H]2C(=O)N2CCN(c3ncccn3)CC2)cc1	E3 ubiquitin-protein ligase XIAP (Homo sapiens)	not met
C=CCNC(=O)[C@@H]1[C@H]2C(=O)O[C@H](c3ccccc3)[C@H](c3ccccc3)N2[C@H](c2ccc(O)cc2)[C@@]12C(=O)Nc1ccccc12	E3 ubiquitin-protein ligase XIAP (Homo sapiens)	met
COCCOC(=O)N1C(=O)[C@@]2(c3cc(C#CCCO)ccc31)[C@H](c1ccccc1OCCO)N1[C@H](c3ccccc3)[C@H](c3ccccc3)OC(=O)[C@H]1[C@@H]2C(=O)NC[C@H](O)c1ccccc1	E3 ubiquitin-protein ligase XIAP (Homo sapiens)	not met
C=C(/C(=C/C[C@H](OC(C)=O)c1cccc(OCCO)c1)c1cc(C(=O)OC)ccc1OC)C(C)C	E3 ubiquitin-protein ligase XIAP (Homo sapiens)	not met
C=C(C(=O)CC[C@@H](OC(C)=O)c1ccccc1OCCO)C(C)C	E3 ubiquitin-protein ligase XIAP (Homo sapiens)	not met
O=C1O[C@H](c2ccccc2)[C@H](c2ccccc2)N2[C@H]1[C@@H](C(=O)Nc1nc3ccccc3s1)[C@]1(C(=O)Nc3ccc(C#CCCO)cc31)[C@H]2c1ccccc1OCCO	E3 ubiquitin-protein ligase XIAP (Homo sapiens)	met
C=CCN1C(=O)[C@@]2(O[C@@H](CCn3cc(CCO)nn3)[C@H]([Si](C)(C)c3ccc(OC)cc3)[C@H]2C)c2cc(N3C(=O)c4cccc5cccc3c45)ccc21	E3 ubiquitin-protein ligase XIAP (Homo sapiens)	met
C=CCOC(=O)[C@H]1[C@@H]2C(=O)O[C@@H](c3ccccc3)[C@@H](c3ccccc3)N2[C@@H](c2ccc(OCCOC(=O)[C@H]3C[C@H]4C(=O)N5CCC[C@H]5C(=O)N4[C@H]3c3cccc(OCCO)c3)cc2)[C@]12C(=O)Nc1ccccc12	E3 ubiquitin-protein ligase XIAP (Homo sapiens)	met
CCCCC(=C=CC[C@@H](O)c1ccc(OCCO)cc1)C[C@@H](O)c1cc(Cl)cc(Cl)c1O	E3 ubiquitin-protein ligase XIAP (Homo sapiens)	not met
CC(C)[C@@H](C(=O)O)n1cc(-c2ccccn2)nn1	E3 ubiquitin-protein ligase XIAP (Homo sapiens)	not met
CO[C@H]1O[C@H](CO)[C@@H](OC(=O)CCc2ccccc2)[C@@H]2OC(=O)[C@H](Cc3ccccc3)C/C=C/C[C@@H](Cc3ccccc3)C(=O)O[C@@H]12	E3 ubiquitin-protein ligase XIAP (Homo sapiens)	not met
O=C1O[C@@H](c2ccccc2)[C@@H](c2ccccc2)N2[C@@H](c3ccc(OCCO)cc3)[C@]3(C(=O)Nc4ccc(C#CC5(O)CCCCCC5)cc43)[C@@H](C(=O)NC[C@H](O)c3ccccc3)[C@H]12	E3 ubiquitin-protein ligase XIAP (Homo sapiens)	not met
C=CC[C@@H](OC(=O)Nc1ccc(SC)cc1)c1ccc(OCCO)cc1	E3 ubiquitin-protein ligase XIAP (Homo sapiens)	not met
COCCCN1C(=O)[C@@]2(Cc3ccccc31)c1ccccc1C(=O)N(Cc1ccccc1Cl)[C@H]2c1ccc(CO)cc1	E3 ubiquitin-protein ligase XIAP (Homo sapiens)	not met
COc1c(C)cc(-c2cc3c(c(CCc4ccccc4)n2)[Si](C(C)C)(C(C)C)OC3)cc1C	E3 ubiquitin-protein ligase XIAP (Homo sapiens)	not met
CCOC(=O)C[C@H]1[C@H](OC(=O)Cc2ccc3c(c2)OCO3)[C@@H](NC(=O)c2ccc3ccccc3c2)c2cc(OCCCO)ccc2N1C(=O)c1ccc2ccccc2n1	E3 ubiquitin-protein ligase XIAP (Homo sapiens)	met
C[C@@H](OCc1ccccc1)C1NC(=O)[C@@]23C(=O)N[C@@H](Cc4ccccc4)C2[C@H](C)[C@@]2(C)O[C@H]2C3/C=C/C/C=C\CNC(=O)[C@@H]2CCCN2C1=O (stereo partly specified)	E3 ubiquitin-protein ligase XIAP (Homo sapiens)	met
CC(C)(C)OC(=O)CC[C@@]1(C(=O)NCc2ccccc2)N=C(c2ccc(OCCCO)cc2)O[C@@H]1c1ccccc1CN=[N+]=[N-]	E3 ubiquitin-protein ligase XIAP (Homo sapiens)	not met
COCCCNC(=O)[C@@]1(C)c2ccccc2C(=O)N(Cc2cc(F)cc(C(F)(F)F)c2)[C@H]1c1ccc(CO)cc1	E3 ubiquitin-protein ligase XIAP (Homo sapiens)	met
COc1ccc(CCNC(=O)[C@@]2(Sc3ccc(C)cc3)CC(=O)N(Cc3ccccc3)[C@@H]2c2ccc(CO)cc2I)cc1	E3 ubiquitin-protein ligase XIAP (Homo sapiens)	met
C=CCN1C(=O)[C@@]2(O[C@@H](CCO)[C@H]([Si](C)(C)c3ccc(OC)cc3)[C@H]2C)c2cc(N(C=O)c3ccccc3)ccc21	E3 ubiquitin-protein ligase XIAP (Homo sapiens)	not met

###

- assayed_target: Torsin-1A-interacting protein 1 (Homo sapiens)
- assay_overview: LAP1 binders from COS7 cell lysate, primary screen, small-molecule microarray, 635/667 nm fluorescence (AID 1116)
- stated_conditions: COS7-hLAP1 lysate binding, 635 nm fluorescence, higher = more signal
observation_type: composite z-score

> print(dat)
                                    molecule  test.value
 1  O=C(NCc1ccccc1)[C@@H]1c2ccccc2C(=O)N(Cc2ccccc2Cl)[C@H]1c1ccc(CO)cc1        1.21
 2  COC(=O)c1c(CC[C@@H](CO)NC(=O)Nc2ccc(OC)cc2)oc(C(=O)Cc2ccccc2)c1C(=O)OC       0.333
 3  COc1ccc([Si](C)(C)[C@@H]2[C@@H](CCn3cc(CCO)nn3)O[C@]3(C(=O)N(Cc4ccc(N5C(=O)c6cccc7cccc5c67)cc4)c4ccccc43)[C@H]2C)cc1       0.758
 4  [N-]=[N+]=NCc1ccccc1C[C@]1(C(=O)NCc2ccccc2)N=C(c2ccc(OCCCO)cc2)O[C@H]1c1ccccc1        1.31
 5  CCN(CC)c1ccc(N2CC=CC34O[C@@H]5C=CCOC(=O)[C@@H]5[C@H]3C(=O)N(C(CO)C(C)C)[C@@H]4C2=O)cc1 (stereo not given in full)      -0.257
 6  C=CC[C@@]1(C(=O)NCc2ccccc2)N=C(c2ccc(OCCCO)cc2)O[C@@H]1c1ccccc1        1.68
 7  CC1CC/C=C\[C@H]2OC34C=CCN(C(C)C)C(=O)[C@H]3N(C(CO)C(C)C)C(=O)[C@@H]4C2C(=O)O1 (stereo not given in full)       0.193
 8     CC(C)[C@@H](C(=O)O)n1cc(-c2ccccn2)nn1       0.539
 9  C=CCN1C(=O)[C@@]2(O[C@@H](CCO)[C@H]([Si](C)(C)c3ccc(OC)cc3)[C@H]2C)c2cc(N(C=O)c3ccccc3)ccc21       0.473
10  NC(=O)N1C(=O)C2C(C1=O)C1C=C(c3ccc(CO)cc3)C2C(C2CC2)N1Cc1cc2c(cc1Br)OCO2 (stereo not given)        1.11
11  CCOC(=O)C[C@H]1[C@H](OC(=O)c2ccc(-c3ccccc3)cc2)[C@@H](NC(=O)C2CCCCC2)c2cc(OCCCO)ccc2N1C(=O)c1ccc2ccccc2n1       0.729
12  CC(C)CCC[C@@H](C)[C@H]1CC[C@@]2(C)C3=C(CC[C@]12C)[C@@]1(C)CC[C@H](OC(=O)CCl)C(C)(C)C1CC3 (stereo not given in full)       0.247
13  C=CCNC(=O)[C@@H]1[C@H]2C(=O)O[C@H](c3ccccc3)[C@H](c3ccccc3)N2[C@H](c2ccc(O)cc2)[C@@]12C(=O)Nc1ccccc12     -0.0205
14  CCOC(=O)C[C@H]1[C@H](OC(=O)c2ccc(-c3ccccc3)cc2)[C@@H](NC(=O)c2ccccc2)c2cc(OCCCO)ccc2N1C(=O)c1ccccc1        0.67
15  O=C(NC1CC1)[C@@H]1c2ccccc2C(=O)N(Cc2ccccc2C(F)(F)F)[C@H]1c1ccc(CO)cc1       0.714
